target: SARS-CoV spike protein (full-length trimeric, conjugated to optically encoded beads) (SARS-CoV, UniProt P59594 14-1190)
Binary call on fold over isotype control (median fluorescence intensity) with cut-off 1 fold over isotype: strictly below means yes, and equality or higher means no.

The following binders have reported results that may help.
binder	group.label
antibody 546 (antibody, V domains shown) VH: QVQLVESGGGVVQPGRSLRLSCAASGFTFSSYGMHWVRQAPGKGLEWVAVIWYDGSNKYYADSVKGRFTISRDNSKNTLYLQMNSLRAEDTAVYYCARNCGGDCVAGDGFDYWGQGTLVTVSS VL: DIQMTQSPSSLSASVGDRVTITCRASQSISSYLNWYQQKPGKAPNLLIYAASSLQSGVPSRFSGSGSGTDFTLTISSLQPEDFATYYCQQSYSALTWTFGQGTKVEIK	no
antibody 566 (antibody, V domains shown) VH: QVQLVQSGAEVKKPGASVKVSCKASGYTFTSYAMHWVRQAPGQRLEWMGWINAGNGNTKYSQKFQGRVTITRDTSASTAYMELSSLRSEDTAVYYCARDLGVAVTLHPADFDYWGQGTLVTVSS VL: QSVLTQPPSVSGAPGQRVTISCTGSSSNIGAGYDVHWYQQLPGTAPKLLIYDNSNRPSGVPDRFSGSKSGTSASLAITGLQAEDEADYYCQSYDSSLSAVVFGGGTKLTVL	yes
antibody 564 (antibody, V domains shown) VH: QVHLVESGGGVVQPGKSLRLSCAASGFIFSSFGMHWVRQPPGKGLEWLAVVSYDGSVTKYSDSFEGRFTISRDNSKNTLYLQMDSLRPEDTAVYYCAKGQGTNLLHYWGQGILVTVSS VL: DVVLSQSPLSLPVTLGQPASISCRSSESLVYTDGDTYLHWFHQRPGQSPRRLIFKVSHRESGVPDRISGSGSGTDFTLKISRVEAEDVGVYYCMQGTHWPFTFGPGTKVDIK	no

q: Would you kindly verify if fold over isotype control (median fluorescence intensity) of antibody 545 (antibody, V domains shown) VH: QVQLVQSGSELKKPGASVKVSCKASGYTFTSYAMNWVRQAPGQGLEWMGWINTNTGNPTYAQGFTGRFVFSLDTSVSTAYLQISVLKAEDTGVYYCARDHELPNSSSWFGHFEYWGQGTLVTVSS VL: SYELTQPPSVSVSPGQTARITCSGDALPKQYAYWYQQKAGQAPVLVIYKDSERRSGIPERFSGSSSGTTVTLTISGVQAEDEADYYCQSADSSGTSVVFGGGTKLTVL is strictly less than 1 fold over isotype?
a: no

q: Would you kindly verify if fold over isotype control (median fluorescence intensity) of antibody 576 (antibody, V domains shown) VH: QVQLVESGGGVVQPGRSLRLSCAASGFTFSSYAMHWVRQAPGKGLEWVAVISYDGSNKYYADSVKGRFTISRDNSKNTLYLQMNSLRAEDTAVYYCAKAGGGSYYRGFDYWGQGTLVTVSS VL: DIQLTQSPSFLSASVGDRVTITCRASQGISSYLAWYQQKPGKAPKLLIYAASTLQSGVPSRFSGSGSGTEFTLTISSLQPEDFATYYCQQLNSYPTFGPGTKVDIK is strictly less than 1 fold over isotype?
a: no
